protocol.notes: in vivo
condition.notes: male, CD-1, mouse, iv, 2 mg/kg
readout: AUC(0-t)

Ask: Request the reported AUC(0-t) associated with "CC1(C)C[C@H](O)C[C@](C)(CNc2ccc(Cl)c(S(N)(=O)=O)c2)C1"
Result: 587 ng·h/mL

* * *

protocol.notes: in vivo
condition.notes: male, CD-1, mouse, iv, 2 mg/kg
readout: AUC(0-inf) (ng·h/mL)
Numbers only, in ng·h/mL.

Ask: If you can, please state the reported AUC(0-inf) value of CC1(C)C[C@H](O)C[C@](C)(CNc2ccc(Cl)c(S(N)(=O)=O)c2)C1 [RO5487624] .
Result: 629
